Values from patent US20190008947A1

Molecular target: A*11:01, P04439
Conditions: modification not given
REPORTED_PROPERTY: IC50 (nM)
Provide only the numeric value, understood in nM.

Lookup: Any idea what IC50 was measured for ALTLHWFRK […, serotype 4] ?
Found: 47
